Tested on: clinical PCLS tissues
Assay info: FPS/PLS response (CES, nCounter) in organotypic ex vivo culture of clinical PCLS tissues
Assay type: cell-based, human
Conditions: count of patients with CES-based FPS response; PCLS cultured 24 h with agent vs vehicle
Readout kind: FPS response rate (number of responding patients)
Simply state the number, no unit and no words.

For orientation, consider the following solved cases.
Molecule | Assay value
CN(C)C(=N)N=C(N)N [Metformin] | 7
O=C(O[C@@H]1Cc2c(O)cc(O)cc2O[C@@H]1c1cc(O)c(O)c(O)c1)c1cc(O)c(O)c(O)c1 [Epigallocatechin gallate] | 7
CCCCOCCOc1ccc(-c2ccc3c(c2)/C=C(/C(=O)Nc2ccc([S@@+]([O-])Cc4cncn4CCC)cc2)CCCN3CC(C)C)cc1 [Cenicriviroc] | 4
CCc1ccc(CCOc2ccc(CC3SC(=O)NC3=O)cc2)nc1 (centres unmarked) [Pioglitazone] | 6

Switching to the query record.
Notebook entry, clinical PCLS tissues assay: FPS response rate (number of responding patients) of Cc1noc(-c2ccc(-c3ccc(CC(=O)O)cc3)cc2)c1NC(=O)O[C@H](C)c1ccccc1 [AM095] = ? 11

----------
System: clinical PCLS tissues
Assay info: FPS/PLS response (CES, nCounter) in organotypic ex vivo culture of clinical PCLS tissues
Type: cell-based, human
Conditions: count of patients with CES-based FPS response; PCLS cultured 24 h with agent vs vehicle
Residues, ends and D or L forms follow the SMILES beside them. *: point of attachment. Cbz = O=C(OCc1ccccc1)*
Readout kind: FPS response rate (number of responding patients)
Simply state the number, no unit and no words.

For orientation, consider the following solved cases.
Molecule | Assay value
Cc1cccc(-c2nn3c(c2-c2ccnc4ccc(C(N)=O)cc24)CCC3)n1 [Galunisertib] | 6
CNC(=C[N+](=O)[O-])NCCSCc1csc(CN(C)C)n1 [Nizatidine] | 3
C#Cc1cccc(Nc2ncnc3cc(OCCOC)c(OCCOC)cc23)c1 [Erlotinib] | 11
CC(C)C[C@H](NC(=O)[C@H](Cc1ccccc1)NC(=O)c1cnccn1)B(O)O [Bortezomib] | 4

Switching to the query record.
Consider the molecule CC(C)C[C@@H](C=O)NC(=O)[C@H](CC(C)C)NC(=O)[C@H](CC(C)C)NC(=O)OCc1ccccc1 [MG132] (Cbz-Leu-Leu-Leu-aldehyde) and give its measured FPS response rate (number of responding patients). 6
